Source listed as ChEMBL document CHEMBL1255301.

Test system: Corynebacterium striatum
test.name: Antimicrobial activity against Corynebacterium striatum isolates by CLSI M45-A protocol based microdilution method
Type: functional
For each of the molecules below, state its MIC90.
Form entry: value (µg/mL) — number only.

Request: Find the measured MIC90: item `CN(C)c1ccc(O)c2c1C[C@H]1C[C@H]3[C@H](N(C)C)C(O)=C(C(N)=O)C(=O)[C@@]3(O)C(O)=C1C2=O` , target or system Corynebacterium striatum.
Response: 8

Request: Please state recorded MIC90 (tested on Corynebacterium striatum) of `CN[C@H](CC(C)C)C(=O)N[C@H]1C(=O)N[C@@H](CC(N)=O)C(=O)N[C@H]2C(=O)N[C@H]3C(=O)N[C@H](C(=O)N[C@H](C(=O)O)c4cc(O)cc(O)c4-c4cc3ccc4O)[C@H](O)c3ccc(c(Cl)c3)Oc3cc2cc(c3O[C@@H]2O[C@H](CO)[C@@H](O)[C@H](O)[C@H]2O[C@H]2C[C@](C)(N)[C@H](O)[C@H](C)O2)Oc2ccc(cc2Cl)[C@H]1O`
Response: 0.5
